tested on: P-388; test: Cytotoxic activity IC50, P-388; details: read-out: CYTOTOXIC ACTIVITIY IC50 (μM) P-388; P-388
OBSERVABLE: IC50 (µM)
Please give a number only; it is taken to be in µM.

query: Form field: reported IC50 of COc1c(C)cc2c(c1O)[C@@H]1C3Cc4c(OC(C)=O)c(C)c5c(c4[C@H](CNC(=O)/C=C/c4cccc(C(F)(F)F)c4)N3[C@@H](O)[C@H](C2)N1C)OCO5 (stereo partly shown) [drawing 109]
result: 0.0001

----------
test system: HT-29; assay: Cytotoxic activity IC50, HT-29; conditions: Homo sapiens, HT-29, read-out: CYTOTOXIC ACTIVITIY IC50 (μM) HT-29
# maps each entry to its IC50
Answer shape: numeric part, then the unit.

[[record]]
compound = "COc1c(C)cc2c(c1O)[C@@H]1C3Cc4c(OC(=O)C(F)(F)C(F)(F)C(F)(F)F)c(C)c5c(c4[C@H](CNC(=O)CCc4ccccc4)N3[C@@H](C#N)[C@H](C2)N1C)OCO5 (some centres unmarked)"
observable = "IC50"
endpoint_value = "0.006 µM"


API: the following record is the query input.
query: Form field: reported IC50 of COCOc1c(OC)c(C)cc2c1[C@@H]1C3Cc4c(OC(=O)C(F)(F)C(F)(F)C(F)(F)F)c(C)c5c(c4[C@H](CNC(=O)CCc4ccccc4)N3[C@@H](C#N)[C@H](C2)N1C)OCO5 (some centres unmarked)
result: 0.5 µM

----------
tested on: MC116; experiment: Cytotoxic activity (M) panel, Lymphoma undifferentiated MC116; settings: Homo sapiens, MC116, read-out: CYTOTOXIC ACTIVITY (M) MC116, leukemias & lymphomas, Lymphoma undifferentiated, line MC116
# maps each entry to its IC50
Please give a number only; it is taken to be in M.

Worked examples, 10 compounds total:
[[record]]
compound = "COc1c(C)cc2c(c1O)[C@@H]1C3Cc4c(OC(C)=O)c(C)c5c(c4[C@H](COC(=O)/C=C/c4cccc(C(F)(F)F)c4)N3[C@@H](O)[C@H](C2)N1C)OCO5 (some centres unmarked) [drawing 237]"
value_units = "M"
endpoint_value = "1.69e-08"

[[record]]
compound = "COc1c(C)cc2c(c1O)[C@@H]1C3Cc4c(OC(C)=O)c(C)c5c(c4[C@H](CNC(=O)[C@H](C)NC(=O)C(F)(F)F)N3[C@@H](O)[C@H](C2)N1C)OCO5 (some centres unmarked) [drawing 219]"
value_units = "M"
endpoint_value = "2.65e-10"

[[record]]
compound = "CCCC(=O)NC[C@H]1c2c(c(OC(C)=O)c(C)c3c2OCO3)CC2[C@H]3c4c(cc(C)c(OC)c4O)C[C@@H]([C@H](O)N21)N3C (some centres unmarked) [drawing 229]"
value_units = "M"
endpoint_value = "1.62e-08"

[[record]]
compound = "CCCCCC(=O)NC[C@H]1c2c(c(OC(C)=O)c(C)c3c2OCO3)CC2[C@H]3c4c(cc(C)c(OC)c4O)C[C@@H]([C@H](O)N21)N3C (some centres unmarked) [drawing 230]"
value_units = "M"
endpoint_value = "3.81e-09"

[[record]]
compound = "CCCC(=O)OC[C@H]1c2c(c(OC(C)=O)c(C)c3c2OCO3)CC2[C@H]3c4c(cc(C)c(OC)c4O)C[C@@H]([C@H](O)N21)N3C (some centres unmarked) [drawing 240]"
value_units = "M"
endpoint_value = "1.51e-08"

[[record]]
compound = "COc1c(C)cc2c(c1O)[C@@H]1C3Cc4c(OC(C)=O)c(C)c5c(c4[C@H](CNC(=O)/C=C/c4ccccc4)N3[C@@H](O)[C@H](C2)N1C)OCO5 (some centres unmarked) [drawing 220]"
value_units = "M"
endpoint_value = "3.8e-09"

[[record]]
compound = "CCC(=O)NC[C@H]1c2c(c(OC(C)=O)c(C)c3c2OCO3)CC2[C@H]3c4c(cc(C)c(OC)c4O)C[C@@H]([C@H](O)N21)N3C (some centres unmarked) [drawing 231]"
value_units = "M"
endpoint_value = "1.04e-09"

[[record]]
compound = "COc1c(C)cc2c(c1O)[C@@H]1C3Cc4c(OC(C)=O)c(C)c5c(c4[C@H](CNC(=O)Cc4ccccc4)N3[C@@H](O)[C@H](C2)N1C)OCO5 (some centres unmarked) [drawing 224]"
value_units = "M"
endpoint_value = "1.13e-08"

[[record]]
compound = "CCC(=O)N[C@@H](C)C(=O)NC[C@H]1c2c(c(OC(C)=O)c(C)c3c2OCO3)CC2[C@H]3c4c(cc(C)c(OC)c4O)C[C@@H]([C@H](O)N21)N3C (some centres unmarked) [drawing 232]"
value_units = "M"
endpoint_value = "1.49e-09"

[[record]]
compound = "COc1c(C)cc2c(c1O)[C@@H]1C3Cc4c(OC(C)=O)c(C)c5c(c4[C@H](CNC(=O)/C=C/c4cccc(C(F)(F)F)c4)N3[C@@H](O)[C@H](C2)N1C)OCO5 (some centres unmarked) [drawing 218]"
value_units = "M"
endpoint_value = "2.15e-10"


API: the following record is the query input.
query: Form field: reported IC50 of COc1c(C)cc2c(c1O)[C@@H]1C3Cc4c(OC(C)=O)c(C)c5c(c4[C@H](CNC(=O)[C@H](C)NC(=O)Cc4ccccc4)N3[C@@H](O)[C@H](C2)N1C)OCO5 (some centres unmarked) [drawing 223]
result: 1.41e-09

----------
test: Cytotoxic activity IC50, CV-1; settings: African green monkey, CV-1 cells
OBSERVABLE: IC50 (µM)
Please give a number only; it is taken to be in µM.

query: Form field: reported IC50 of COCOc1c(OC)c(C)cc2c1[C@@H]1C3Cc4c(OC(=O)C(F)(F)C(F)(F)C(F)(F)F)c(C)c5c(c4[C@H](CNC(=O)CCc4ccccc4)N3[C@@H](C#N)[C@H](C2)N1C)OCO5 (stereo partly shown)
result: 0.5

----------
system: SK-HEP-1; experiment: Cytotoxic activity (M) panel, Liver SK-HEP-1; conditions: Homo sapiens, SK-HEP1, read-out: CYTOTOXIC ACTIVITY (M) SK-HEP-1
# maps each entry to its IC50
Please give a number only; it is taken to be in M.

[[record]]
molecule = "COc1c(C)cc2c(c1O)[C@@H]1C3Cc4c(OC(C)=O)c(C)c5c(c4[C@H](CNC(=O)[C@H](C)NC(=O)C(F)(F)F)N3[C@@H](O)[C@H](C2)N1C)OCO5 (stereo partly drawn) [drawing 212]"
observable = "IC50"
endpoint_value = "6.01e-11"

[[record]]
molecule = "CCCCCC(=O)NC[C@H]1c2c(c(OC(C)=O)c(C)c3c2OCO3)CC2[C@H]3c4c(cc(C)c(OC)c4O)C[C@@H]([C@H](O)N21)N3C (stereo partly drawn) [drawing 226]"
observable = "IC50"
endpoint_value = "1.08e-09"


API: the following record is the query input.
query: Form field: reported IC50 of COc1c(C)cc2c(c1O)[C@@H]1C3Cc4c(OC(C)=O)c(C)c5c(c4[C@H](CNC(=O)/C=C/c4ccccc4)N3[C@@H](O)[C@H](C2)N1C)OCO5 (stereo partly drawn) [drawing 213]
result: 3.15e-09

----------
# maps each entry to its log10 of IC50
system: Hut 78; assay: Cytotoxic activity (M) panel, Lymphoma Cutaneus T cell Hut 78; details: Homo sapiens, HuT78, read-out: CYTOTOXIC ACTIVITY (M) Hut 78, leukemias & lymphomas, Lymphoma Cutaneus T cell, line Hut 78
Friendly reminder: values = log10 of IC50, unit M.

Worked examples, 4 compounds total:
[[record]]
compound = "CCCC(=O)OC[C@H]1c2c(c(OC(C)=O)c(C)c3c2OCO3)CC2[C@H]3c4c(cc(C)c(OC)c4O)C[C@@H]([C@H](O)N21)N3C (some centres unmarked) [drawing 240]"
observable = "log10 of IC50"
endpoint_value = -7.69

[[record]]
compound = "CCCC(=O)NC[C@H]1c2c(c(OC(C)=O)c(C)c3c2OCO3)CC2[C@H]3c4c(cc(C)c(OC)c4O)C[C@@H]([C@H](O)N21)N3C (some centres unmarked) [drawing 229]"
observable = "log10 of IC50"
endpoint_value = -8.13

[[record]]
compound = "COc1c(C)cc2c(c1O)[C@@H]1C3Cc4c(OC(C)=O)c(C)c5c(c4[C@H](CNC(=O)[C@H](C)NC(=O)CCc4ccccc4)N3[C@@H](O)[C@H](C2)N1C)OCO5 (some centres unmarked) [drawing 222]"
observable = "log10 of IC50"
endpoint_value = -9.00

[[record]]
compound = "COc1c(C)cc2c(c1O)[C@@H]1C3Cc4c(OC(C)=O)c(C)c5c(c4[C@H](CNC(=O)Cc4ccccc4)N3[C@@H](O)[C@H](C2)N1C)OCO5 (some centres unmarked) [drawing 224]"
observable = "log10 of IC50"
endpoint_value = -8.13


API: the following record is the query input.
query: Return log10 of IC50 measured with Hut 78 given this compound: COc1c(C)cc2c(c1O)[C@@H]1C3Cc4c(OC(C)=O)c(C)c5c(c4[C@H](CNC(=O)/C=C/c4cccc(C(F)(F)F)c4)N3[C@@H](O)[C@H](C2)N1C)OCO5 (some centres unmarked) [drawing 218]
result: -10.26
